# Protocol Summary: Solubility of compound at pH 4
# Format: physicochemical
# Test Context: buffer
Measurement Kind: solubility

[ask] Given the molecule CC(=O)N1CCN([C@H]2C[C@@H](n3cc(-c4cccc(OC[C@@H]5CCCO5)c4F)c4c(N)ncnc43)C2)CC1 , write its reported solubility.
[reply] > 1000 µM

* * *

# Protocol Summary: Solubility of compound at pH 6.8
# Format: physicochemical
# Test Context: buffer
Measurement Kind: solubility

[ask] Supply recorded solubility for CC(=O)N1CCN([C@H]2C[C@@H](n3cc(-c4cc(OC[C@@H]5CCCO5)ccc4F)c4c(N)ncnc43)C2)CC1 here.
[reply] > 20 µM

Hey, just so you know, these numbers are from ChEMBL document CHEMBL3785066.
